Values were extracted from the supplement of paper PMC12350171.

- Tested on: Streptococcus parasanguinis
- METHOD: IC25 growth inhibition; higher = less potent;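 also: lowest concentration where monotonic median growth AUC falls below 0.75 of drug-free control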
RECORDED ENDPOINT: IC25 growth inhibition

molecule="CCOC(=O)C1=C(COCCN)NC(C)=C(C(=O)OC)C1c1ccccc1Cl (centres undefined)" result="> 80 µM"
molecule=Clc1ccccc1C(c1ccccc1)(c1ccccc1)n1ccnc1 result="> 80 µM"
molecule=O=C1CCc2ccc(OCCCCN3CCN(c4cccc(Cl)c4Cl)CC3)cc2N1 result="> 80 µM"
molecule=CN[C@H](CC(C)C)C(=O)N[C@H]1C(=O)N[C@@H](CC(N)=O)C(=O)N[C@H]2C(=O)N[C@H]3C(=O)N[C@H](C(=O)N[C@H](C(=O)O)c4cc(O)cc(O)c4-c4cc3ccc4O)[C@H](O)c3ccc(c(Cl)c3)Oc3cc2cc(c3O[C@@H]2O[C@H](CO)[C@@H](O)[C@H](O)[C@H]2O[C@H]2C[C@](C)(N)[C@H](O)[C@H](C)O2)Oc2ccc(cc2Cl)[C@H]1O result="< 1.25 µM"

* * *

- Test system: Streptococcus parasanguinis
- METHOD: IC25 growth inhibition; higher = less potent
Parameter IC25 growth inhibition: see the listing below.
RECORDED ENDPOINT: IC25 growth inhibition

compound=CC/C(=C(\c1ccccc1)c1ccc(OCCN(C)C)cc1)c1ccccc1 result="> 40 µM"
compound=CCOC(=O)C1=C(C)NC(C)=C(C(=O)OCC)C1c1ccccc1/C=C/C(=O)OC(C)(C)C result="> 20 µM"
compound="CNCCC(Oc1ccc(C(F)(F)F)cc1)c1ccccc1 (stereo not drawn)" result="> 160 µM"
compound=CN[C@H]1CC[C@@H](c2ccc(Cl)c(Cl)c2)c2ccccc21 result="≤ 160 µM"
compound="CN(Cc1cnc2nc(N)nc(N)c2n1)c1ccc(C(=O)N[C@@H](CCC(=O)O)C(=O)O)cc1 [Methotrexate]" result="< 1.25 µM"
compound="CN(C)C(=O)C(CCN1CCC(O)(c2ccc(Cl)cc2)CC1)(c1ccccc1)c1ccccc1 [Loperamide]" result="> 80 µM"
compound=Nc1nc(=S)c2ncn([C@@H]3O[C@H](CO)[C@@H](O)[C@H]3O)c2[nH]1 result="> 40 µM"
compound=CN(N=O)C(=O)N[C@@H](C=O)[C@@H](O)[C@H](O)[C@H](O)CO result="≤ 20 µM"

* * *

Parameter IC25 growth inhibition: see the listing below.
- System: Bacteroides thetaiotaomicron
- METHOD: IC25 growth inhibition; higher = less potent
RECORDED ENDPOINT: IC25 growth inhibition

compound="CN1CCN(C2=Nc3ccccc3Oc3ccc(Cl)cc32)CC1 [Loxapine]" result="≤ 40 µM"
compound="COc1cccc2c1C(=O)c1c(O)c3c(c(O)c1C2=O)C[C@@](O)(C(=O)CO)C[C@@H]3O[C@H]1C[C@H](N)[C@H](O)[C@H](C)O1 [Doxorubicin]" result="> 160 µM"
compound="CCOC(=O)C1=C(C)NC(C)=C(C(=O)OC)C1c1cccc(Cl)c1Cl (stereo not drawn) [Felodipine]" result="≤ 40 µM"
compound="CN(N=O)C(=O)N[C@@H](C=O)[C@@H](O)[C@H](O)[C@H](O)CO [Streptozotocin]" result="≤ 40 µM"
compound="COc1cc(C(=O)NS(=O)(=O)c2ccccc2C)ccc1Cc1cn(C)c2ccc(NC(=O)OC3CCCC3)cc12 [Zafirlukast]" result="≤ 80 µM"
compound="CC(CN1c2ccccc2Sc2ccccc21)N(C)C (stereo not drawn) [Promethazine]" result="≤ 80 µM"
compound="C[C@H]1c2cccc(O)c2C(=O)C2=C(O)[C@]3(O)C(=O)C(C(N)=O)=C(O)[C@@H](N(C)C)[C@@H]3[C@@H](O)[C@@H]21 [Doxycycline]" result="< 1.25 µM"
compound="O=C(Nc1ccc([N+](=O)[O-])cc1Cl)c1cc(Cl)ccc1O [Niclosamide]" result="< 1.25 µM"
